FYI, the data here is from patent US20260250318A1.

The reader will find reported Fold enrichment over AAV9 in the spinal cord of NHPs values listed item by item below.
test system: brain, spinal cord, and DRG of the NHPs; experiment: NGS fold enrichment of synthetic library (passage 3) in NHPs, first cross-species screen; assay type: in vivo, cynomolgus macaques (Macaca fascicularis); settings: synthetic library passage 3, intravenous, RNA NGS, spinal cord of NHPs, relative to wild-type AAV9
readoutName: Fold enrichment over AAV9 in the spinal cord of NHPs (fold)

- chainSequence: "GANMGHVSGQNQQT"
  resultNumber: 0.810
- chainSequence: "GSGLLPLSSQNQQT"
  resultNumber: 1.130
- chainSequence: "GSRMTQQFGQNQQT"
  resultNumber: 25.798
- chainSequence: "GSLKPTTLGQNQQT"
  resultNumber: 0.476
- chainSequence: "GSGQLRSLSTNQQT"
  resultNumber: 6.855
- chainSequence: "GTHPYTSSGQNQQT"
  resultNumber: 1.684
- chainSequence: "GSLVSQGAGQNQQT"
  resultNumber: 4.414
- chainSequence: "GVAGSLVSGQNQQT"
  resultNumber: 7.670
- chainSequence: "GGAGSAHSGQNQQT"
  resultNumber: 6.108
